# credit: PubChem BioAssay AID1159580

Would you mind telling me the reported normalized growth of each entry?
Test: chemical genetic growth profiling, strain panel (AID 1159580);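 also: tested at 20 µM; growth read once vehicle control cultures reached saturation at 30 °C; 1 = growth at the plate median or of vehicle wells; lower values mean less growth of the strain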
Conditions: S. cerevisiae deletion strains, growth OD, locus YAL040C, strain CLN3, hits give low values
Hit rate of the full screen: of about 5,500 compounds, about 2,000 (36%) were called active. About 18% were inconclusive and are not listed. The list shows a part of the results.
Response field accepts a number only; no unit should be typed.

Looking up `CN1C(C(=O)Nc2ccccn2)=C(O)c2ccccc2S1(=O)=O` , I see its normalized growth listed as 1

Looking up `COC(=O)[C@@H](N)Cc1ccc(O)c(O)c1` , I see its normalized growth listed as 1.03

Looking up CC(C(O)c1ccc(O)cc1)N1CCC(Cc2ccccc2)CC1 (stereo unspecified) , I see its normalized growth listed as 1.03

Looking up `C[C@@H](CN1CCC(Cc2ccccc2)CC1)[C@@H](O)c1ccc(O)cc1` , I see its normalized growth listed as 1.07

Looking up CCCCCCCCCCCCCC(=O)O[C@@H]1[C@@H](C)[C@@]2(O)[C@@H](C=C(CO)C[C@@]3(O)C(=O)C(C)=C[C@@H]23)C2C(C)(C)[C@@]21OC(C)=O (stereo partly specified) , I see its normalized growth listed as 0.977

Looking up `N=C1Sc2ccccc2C2=NCCCN12` , I see its normalized growth listed as 1.02

----------
Would you mind telling me the reported normalized growth of each entry?
Assay: chemical genetic growth profiling, strain panel (AID 1159580);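 also: tested at 20 µM; growth read once vehicle control cultures reached saturation at 30 °C; 1 = growth at the plate median or of vehicle wells; lower values mean less growth of the strain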
Details: S. cerevisiae deletion strains, growth OD, locus YJL095W, strain BCK1 (second series), hits give low values
Where a name gives a salt, the structure may show the parent alone. The campaign covered roughly 5,500 compounds. About 2,000 (36%) were called active. Not shown: some 18% with an inconclusive outcome. Some of the results follow. Where a SMILES comes first, the peptide text is derived from it. The star is where a group is joined. Tfa = O=C(C(F)(F)F)*
Response field accepts a number only; no unit should be typed.

Looking up `O=c1[nH]oc2c1CCNC2` , I see its normalized growth listed as 0.999

Looking up `Oc1ccc(Cl)cc1Cc1cc(Cl)ccc1O` , I see its normalized growth listed as 0.057

Looking up C=C1CCC(OC(C)=O)/C(C)=C/C[C@@H]2[C@@H]1CC2(C)C (stereo partly specified) , I see its normalized growth listed as 1.01

Looking up O=C1[C@H](CCC(O)c2ccc(F)cc2)[C@@H](c2ccc(O)cc2)N1c1ccc(F)cc1 (stereo partly specified) , I see its normalized growth listed as 0.975

Looking up `Cc1ccc(Cl)c(Nc2ccccc2C(=O)O)c1Cl` , I see its normalized growth listed as 0.822

Looking up `COc1c(OC)c2occc2c2oc(=O)ccc12` , I see its normalized growth listed as 0.974

Looking up `CC(=O)Oc1c(C)cccc1C(=O)O` , I see its normalized growth listed as 0.977

Looking up CCCCN1CCCCC1C(=O)Nc1c(C)cccc1C (stereo unspecified) , I see its normalized growth listed as 0.995

Looking up `COC(=O)C1=CCCN(C)C1` , I see its normalized growth listed as 1.01

Looking up `CC(C)C(=O)Nc1ccc([N+](=O)[O-])c(C(F)(F)F)c1` , I see its normalized growth listed as 1.01

Looking up COC(=O)[C@@H]1OC(=O)[C@H]2O[C@@]23[C@@]1(C)CCC1[C@@]2(C)CCC(=O)C(C)(C)C2C[C@@H](OC(C)=O)[C@]13C (stereo partly specified) , I see its normalized growth listed as 0.964

Looking up `CC1(C)NC(=O)N(c2ccc([N+](=O)[O-])c(C(F)(F)F)c2)C1=O` , I see its normalized growth listed as 0.982

Looking up CC1C[C@H]2CC(=O)[C@H]3CCCN4CCC[C@H]2[C@]34C1 (stereo partly specified) , I see its normalized growth listed as 1.01

Looking up `CC(C)(C)CC(C)(C)c1ccc(O)c(Cc2ccc(Cl)cc2Cl)c1` , I see its normalized growth listed as 1.01

Looking up `OCc1ccccc1O` , I see its normalized growth listed as 1.02

Looking up C=CCSCC1Nc2cc(Cl)c(S(N)(=O)=O)cc2S(=O)(=O)N1 (stereo unspecified) , I see its normalized growth listed as 0.994

Looking up `NC(=O)c1cccc(N)c1` , I see its normalized growth listed as 0.979

Looking up `Cn1c(=O)c2[nH]cnc2n(C)c1=O` , I see its normalized growth listed as 1.03

Looking up `CCOC(=O)c1ccc(O)cc1` , I see its normalized growth listed as 1

Looking up CC(C)C(NC(=O)C(Cc1ccc(O)cc1)NC(=O)C(NC(=O)C(F)(F)F)C(C)C)C(=O)O (stereo not drawn) (Tfa-Val-Tyr-Val-OH; configuration not given here) , I see its normalized growth listed as 0.975

Looking up `Clc1cccc(Cl)c1NC1=NCCN1` , I see its normalized growth listed as 0.983
